Ref: paper PMC12828747

Target: T1, CDTb_(D1–D4) monomer (residues 43–876) (Clostridioides difficile, strain not …)
T1 construct: also called full-length (pro) CDTb; pro-CDTb
T1 chain: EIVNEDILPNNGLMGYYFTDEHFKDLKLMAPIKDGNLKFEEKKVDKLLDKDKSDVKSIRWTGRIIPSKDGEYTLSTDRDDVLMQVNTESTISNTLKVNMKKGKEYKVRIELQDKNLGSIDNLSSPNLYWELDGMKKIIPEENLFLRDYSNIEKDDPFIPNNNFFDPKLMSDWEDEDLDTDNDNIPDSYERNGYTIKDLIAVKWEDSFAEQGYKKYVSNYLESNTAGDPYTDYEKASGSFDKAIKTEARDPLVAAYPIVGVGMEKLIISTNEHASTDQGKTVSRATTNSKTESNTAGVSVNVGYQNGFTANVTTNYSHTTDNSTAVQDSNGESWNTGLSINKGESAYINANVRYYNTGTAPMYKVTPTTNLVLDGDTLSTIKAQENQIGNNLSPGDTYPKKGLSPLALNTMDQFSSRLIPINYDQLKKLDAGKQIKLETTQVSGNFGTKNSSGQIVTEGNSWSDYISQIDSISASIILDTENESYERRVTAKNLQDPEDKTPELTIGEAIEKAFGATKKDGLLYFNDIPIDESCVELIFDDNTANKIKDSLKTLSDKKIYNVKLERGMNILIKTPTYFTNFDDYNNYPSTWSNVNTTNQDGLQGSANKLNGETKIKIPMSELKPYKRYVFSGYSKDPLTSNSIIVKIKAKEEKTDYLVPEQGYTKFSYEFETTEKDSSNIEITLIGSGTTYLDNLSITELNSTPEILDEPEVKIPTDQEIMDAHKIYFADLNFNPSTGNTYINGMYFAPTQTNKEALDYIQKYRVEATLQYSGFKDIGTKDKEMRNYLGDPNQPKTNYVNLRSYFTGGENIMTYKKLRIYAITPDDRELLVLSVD
Assay: SPR; Carterra LSA^XT, SAHC30M chip, 25 °C; biotinylated Nbs captured at eight densities; CDTb constructs injected at 0.3–300 nM (fourfold dilutions) without regeneration; HBS-T (10 mM HEPES pH 7.4, 150 mM NaCl, 0.05% Tween-20) with 0.5 mg/ml BSA; one-to-one kinetics model
Settings: both partners purified

>  <binder>
Nb C6 (VHH, also called C1C6; source: Expi293F, transfected, purified from supernatant (TALON resin)) VHH: QVQLQESGGGLVEPGGSLRLSCVASGIVVASSTMSWYRQAPGKQRELVAQIFSGGNTNYRDSVRGRFTISKDNAKNTAYLQMDNLEPDDTAVYYCYARGFWGQGTQVTVSS

>  <kon / M⁻¹ s⁻¹>
790000

$$$$
>  <binder>
Nb H8 (VHH, also called C1H8; source: Expi293F, transfected, purified from supernatant (TALON resin)) VHH: QVQLQESGGGLVQPGRSLRLSCEASDFSLNTFGAGWFRQVPGKEREGVSCISPSNSSTYYADSVKGRFTISRDNAKNTIYLQMNSLKPEDTGVYFCAARPITSAQALCTLLVSDSFTSWGQGTQVTVSS

>  <kon / M⁻¹ s⁻¹>
560000

$$$$
>  <binder>
Nb A9 (VHH, also called C1A9; source: Expi293F, transfected, purified from supernatant (TALON resin)) VHH: QVQLQESGGGLVQPGGSLRLSCTSSTNMLEFTAVAWWRQAPGKQRDLLAVITRAGVPNYADSKGRFAISRDNAKNTVDLLINTLEPDDTAVYTCNARTSGNINYWGQGTQVTVSS

>  <kon / M⁻¹ s⁻¹>
1e+06

$$$$
>  <binder>
Nb H12 (VHH, also called C1H12; source: Expi293F, transfected, purified from supernatant (TALON resin)) VHH: QVQLQESGGGLVQPGGSLRLSCAASGDIFSFYTMGWYRQAPGKQRELVATITSPGTTNYADSVKGRFTISRDNAKNMVYLQMTSLKPEDTAVYYCNADRILTTDPQFKYWGQGTQVTVSS

>  <kon / M⁻¹ s⁻¹>
1.4e+06

$$$$
>  <binder>
Nb G2 (VHH, also called C1G2; source: Expi293F, transfected, purified from supernatant (TALON resin)) VHH: QVQLQESGGGLVQPGGSLTLSCKASGIVFSTHTLAWYRQAPGKHRNVLAVITSAGIPNYDTDLKGRFTISRDNAKNTVYLQMNSLEPEDTAVYYCNARGPHPTVTGTTANYWGQGTQVTVSS

>  <kon / M⁻¹ s⁻¹>
380000

$$$$
